# assay_explanation: COS7 lysate on small-molecule microarray, probe aHis, 635 nm (AID 1123);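 also: z-score combines 667nm fluorescence intensity with signal-to-noise per printed compound spot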
# experimental_conditions: COS7 cell lysate, fluorescence, higher = more signal
recorded_endpoint: composite z-score

| compound | recorded_endpoint | observed |
| --- | --- | --- |
| C=CCC(OC(C)=O)[C@@H]1[C@@H](N(Cc2ccc(-c3ccccc3)cc2)C(=O)Cc2ccc(F)cc2)c2cc(OCCCO)ccc2N1C(=O)c1ccc2ccccc2c1 (some centres not stated) | composite z-score | 0.361 |
| CC(C)=CCCC(C)=CC(O)C1C=CC2C(=O)N(c3ccccc3)C(=O)C2N1Nc1ccc(C(C)C)cc1 (configuration not stated) | composite z-score | 2.32 |
| O=C(CS)NCCCCCNC(=O)[C@@H]1C[C@@H]2C(=O)NCC(=O)N2[C@@H]1c1ccc(O)cc1 | composite z-score | 0.559 |
| C=CC[C@]1(C(N)=O)COC(c2ccc(OCCCO)cc2)=N1 | composite z-score | 0.148 |
| COC(=O)c1c(CC[C@@H](CO)NC(=O)N[C@@H](Cc2ccccc2)Cn2cc(-c3ccccn3)nn2)oc(C(=O)N2CCOCC2)c1C(=O)OC | composite z-score | 0.0795 |
| CCN(CC)c1ccc(N2CC=CC34O[C@@H]5/C=C\CCC(C)OC(=O)C5[C@H]3C(=O)N(CCCCCO)[C@@H]4C2=O)cc1 (some centres not stated) | composite z-score | -1.05 |
| O=C1OCCC=C[C@H]2OC34C=CCN(CCN5CCOCC5)C(=O)[C@H]3N(CCCCCO)C(=O)[C@@H]4C12 (some centres not stated) | composite z-score | 2.4 |
